All figures here come from patent US20230000870A1.

# MEASUREMENT_TARGET: CDK12 (aa686-1082)/Cyclin K complex (Homo sapiens, UniProt Q9NYV4)
# Construct: CDK12 (aa686-1082)/Cyclin K complex
# Sequence (Q9NYV4 686-1082): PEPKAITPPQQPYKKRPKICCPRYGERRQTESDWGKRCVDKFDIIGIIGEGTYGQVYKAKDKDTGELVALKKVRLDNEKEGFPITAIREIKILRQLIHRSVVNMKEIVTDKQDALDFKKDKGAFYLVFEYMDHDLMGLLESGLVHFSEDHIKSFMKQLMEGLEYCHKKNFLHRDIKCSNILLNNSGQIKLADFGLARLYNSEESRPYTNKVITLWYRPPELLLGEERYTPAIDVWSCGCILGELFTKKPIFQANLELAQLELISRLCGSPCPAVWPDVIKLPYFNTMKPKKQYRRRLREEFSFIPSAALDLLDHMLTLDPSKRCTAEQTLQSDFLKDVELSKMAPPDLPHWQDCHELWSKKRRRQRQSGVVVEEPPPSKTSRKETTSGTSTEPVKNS
# Sequence (O75909 whole entry partner, the tested form may be a part): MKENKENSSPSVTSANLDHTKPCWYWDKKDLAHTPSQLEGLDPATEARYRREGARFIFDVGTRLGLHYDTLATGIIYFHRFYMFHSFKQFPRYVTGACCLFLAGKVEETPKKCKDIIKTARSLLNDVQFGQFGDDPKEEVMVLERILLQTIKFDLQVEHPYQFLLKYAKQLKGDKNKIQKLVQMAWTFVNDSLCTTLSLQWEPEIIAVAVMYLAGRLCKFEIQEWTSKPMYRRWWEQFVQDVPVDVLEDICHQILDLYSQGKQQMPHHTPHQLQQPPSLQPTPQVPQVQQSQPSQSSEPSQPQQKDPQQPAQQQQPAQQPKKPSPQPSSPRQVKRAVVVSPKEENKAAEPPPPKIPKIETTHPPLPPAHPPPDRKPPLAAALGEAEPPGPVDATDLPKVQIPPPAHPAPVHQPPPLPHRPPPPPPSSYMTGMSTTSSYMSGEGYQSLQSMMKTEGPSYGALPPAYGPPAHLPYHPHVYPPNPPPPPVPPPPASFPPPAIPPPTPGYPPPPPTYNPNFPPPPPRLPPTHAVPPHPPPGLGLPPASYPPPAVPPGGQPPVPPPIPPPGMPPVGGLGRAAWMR
# EXPERIMENT_SUMMARY: CDK12 kinase inhibition assay (Caliper/LabChip EZ Reader)
# Type: biochemical
# MEASUREMENT_SETUP: CDK12 (aa686-1082)/Cyclin K 50 nM, ATP 2 mM, 3 hr at 27° C.
EXPERIMENTAL_ENDPOINT: IC50

// fetch IC50; item: Clc1cnc(NC2CCCNC2)nc1-c1cnn2ccccc12 (stereo not drawn) [Compound 104] ; system: CDK12 (aa686-1082)/Cyclin K complex (Homo sapiens, UniProt Q9NYV4) 0.02 to 0.2 µM

// fetch IC50; item: FC(F)(F)c1cnc(N[C@H]2CCCNC2)nc1-c1c[nH]c2ccc(-c3ccnnc3)cc12 [Compound 230] ; system: CDK12 (aa686-1082)/Cyclin K complex (Homo sapiens, UniProt Q9NYV4) 0.2 to 5 µM

// fetch IC50; item: Cc1cccc2c(-c3nc(NC4CCCNC4)ncc3CC(C)C)c[nH]c12 (stereo not drawn) [Compound 140] ; system: CDK12 (aa686-1082)/Cyclin K complex (Homo sapiens, UniProt Q9NYV4) ≥ 5 µM

// fetch IC50; item: N#Cc1cccc2c(-c3nc(NC4CCCNC4)ncc3C(F)(F)F)c[nH]c12 (stereo not drawn) [Compound 153] ; system: CDK12 (aa686-1082)/Cyclin K complex (Homo sapiens, UniProt Q9NYV4) 0.02 to 0.2 µM

// fetch IC50; item: FC(F)(F)c1cnc(NC2CCCNC2)nc1-c1c[nH]c2cc(-c3cc[nH]n3)ccc12 (stereo not drawn) [Compound 291] ; system: CDK12 (aa686-1082)/Cyclin K complex (Homo sapiens, UniProt Q9NYV4) 0.2 to 5 µM

// fetch IC50; item: CCCCCc1ccc2c(-c3nc(N[C@@H]4CCCNC4)ncc3C(F)(F)F)c[nH]c2c1 [Compound 241] ; system: CDK12 (aa686-1082)/Cyclin K complex (Homo sapiens, UniProt Q9NYV4) 0.2 to 5 µM

// fetch IC50; item: FC1CCNCC1Nc1ncc(Cl)c(-c2c[nH]c3ccccc23)n1 (stereo not drawn) [Compound 121] ; system: CDK12 (aa686-1082)/Cyclin K complex (Homo sapiens, UniProt Q9NYV4) 0.2 to 5 µM

// fetch IC50; item: N#CC1CCN(C(=O)c2ccc3c(-c4nc(NC5CCCNC5)ncc4C(F)(F)F)c[nH]c3c2)C1 (stereo not drawn) [Compound 293] ; system: CDK12 (aa686-1082)/Cyclin K complex (Homo sapiens, UniProt Q9NYV4) 0.2 to 5 µM

// fetch IC50; item: CS(=O)(=O)c1c(C#N)ccc2c(-c3nc(N[C@H]4CCCNC4)ncc3C(F)(F)F)c[nH]c12 [Compound 232] ; system: CDK12 (aa686-1082)/Cyclin K complex (Homo sapiens, UniProt Q9NYV4) 0.2 to 5 µM

// fetch IC50; item: CC(C)CN1CCCC(Nc2ncc(Cl)c(-c3c[nH]c4ccccc34)n2)C1 (stereo not drawn) [Compound 145] ; system: CDK12 (aa686-1082)/Cyclin K complex (Homo sapiens, UniProt Q9NYV4) 0.2 to 5 µM

// fetch IC50; item: O=C(c1ccc2c(-c3nc(N[C@H]4CCCNC4)ncc3C(F)(F)F)c[nH]c2c1)N1CC[C@@H](O)C1 [Compound 250] ; system: CDK12 (aa686-1082)/Cyclin K complex (Homo sapiens, UniProt Q9NYV4) 0.2 to 5 µM

// fetch IC50; item: CC1(C)CCNC[C@@H]1Nc1ncc(C(F)(F)F)c(-c2c[nH]c3ccccc23)n1 [Compound 209] ; system: CDK12 (aa686-1082)/Cyclin K complex (Homo sapiens, UniProt Q9NYV4) ≥ 5 µM

// fetch IC50; item: Clc1cnc(NC2CN3CCC2CC3)nc1-c1c[nH]c2ccccc12 (stereo not drawn) [Compound 131] ; system: CDK12 (aa686-1082)/Cyclin K complex (Homo sapiens, UniProt Q9NYV4) ≥ 5 µM

// fetch IC50; item: CCc1cnc(NC2CCCNC2)nc1-c1n[nH]c2cc(C#N)ccc12 (stereo not drawn) [Compound 275] ; system: CDK12 (aa686-1082)/Cyclin K complex (Homo sapiens, UniProt Q9NYV4) 0.2 to 5 µM

// fetch IC50; item: CCc1cnc(NC2CCCNC2)nc1-c1c[nH]c2c(F)cccc12 (stereo not drawn) [Compound 144] ; system: CDK12 (aa686-1082)/Cyclin K complex (Homo sapiens, UniProt Q9NYV4) 0.2 to 5 µM

// fetch IC50; item: Cn1cc(-c2ccc3c(-c4nc(NC5CCCNC5)ncc4C(F)(F)F)c[nH]c3c2)cn1 (stereo not drawn) [Compound 181] ; system: CDK12 (aa686-1082)/Cyclin K complex (Homo sapiens, UniProt Q9NYV4) 0.2 to 5 µM

// fetch IC50; item: OCc1cccc(-c2ccc3c(-c4nc(NC5CCCNC5)ncc4C(F)(F)F)c[nH]c3c2)n1 (stereo not drawn) [Compound 316] ; system: CDK12 (aa686-1082)/Cyclin K complex (Homo sapiens, UniProt Q9NYV4) 0.2 to 5 µM

// fetch IC50; item: CC1CNCC(Nc2ncc(Cl)c(-c3c[nH]c4ccccc34)n2)C1 (stereo not drawn) [Compound 201] ; system: CDK12 (aa686-1082)/Cyclin K complex (Homo sapiens, UniProt Q9NYV4) 0.02 to 0.2 µM

// fetch IC50; item: CC1(O)CCN(C(=O)c2ccc3c(-c4nc(NC5CCCNC5)ncc4C(F)(F)F)c[nH]c3c2)C1 (stereo not drawn) [Compound 220] ; system: CDK12 (aa686-1082)/Cyclin K complex (Homo sapiens, UniProt Q9NYV4) 0.2 to 5 µM

// fetch IC50; item: FC(F)(F)c1cnc(NC2CCCNC2)nc1-c1c[nH]c2cc(-c3ccnc4ccccc34)ccc12 (stereo not drawn) [Compound 339] ; system: CDK12 (aa686-1082)/Cyclin K complex (Homo sapiens, UniProt Q9NYV4) 0.2 to 5 µM

// fetch IC50; item: Clc1cnc(N[C@H]2CCCNC2)nc1-c1c[nH]c2c(N3CCOCC3)cccc12 [Compound 150] ; system: CDK12 (aa686-1082)/Cyclin K complex (Homo sapiens, UniProt Q9NYV4) 0.2 to 5 µM

// fetch IC50; item: N#Cc1ccc2c(-c3nc(NC4CCCNC4)ncc3C(F)(F)F)c[nH]c2c1C#N (stereo not drawn) [Compound 258] ; system: CDK12 (aa686-1082)/Cyclin K complex (Homo sapiens, UniProt Q9NYV4) 0.2 to 5 µM

// fetch IC50; item: OC1CCNCC1Nc1ncc(Cl)c(-c2c[nH]c3ccccc23)n1 (stereo not drawn) [Compound 113] ; system: CDK12 (aa686-1082)/Cyclin K complex (Homo sapiens, UniProt Q9NYV4) 0.2 to 5 µM

// fetch IC50; item: Clc1cnc(NC2CCCNC2)nc1-c1c[nH]c2ccccc12 (stereo not drawn) [Compound 101] ; system: CDK12 (aa686-1082)/Cyclin K complex (Homo sapiens, UniProt Q9NYV4) 0.2 to 5 µM

// fetch IC50; item: C#Cc1cnc(N[C@H]2CCCNC2)nc1-c1cn(C)c2ccccc12 [Compound 195] ; system: CDK12 (aa686-1082)/Cyclin K complex (Homo sapiens, UniProt Q9NYV4) ≥ 5 µM

// fetch IC50; item: Cc1c(-c2ccc3c(-c4nc(NC5CCCNC5)ncc4C(F)(F)F)c[nH]c3c2)cnn1C (stereo not drawn) [Compound 227] ; system: CDK12 (aa686-1082)/Cyclin K complex (Homo sapiens, UniProt Q9NYV4) 0.2 to 5 µM

// fetch IC50; item: O=C(c1ccc2c(-c3nc(NC4CCCNC4)ncc3C(F)(F)F)c[nH]c2c1)N1CC(O)C(F)(F)C1 (stereo not drawn) [Compound 349] ; system: CDK12 (aa686-1082)/Cyclin K complex (Homo sapiens, UniProt Q9NYV4) 0.2 to 5 µM

// fetch IC50; item: Cn1cc(-c2nc(NC3CCCNC3)ncc2C(F)(F)F)c2cccc(S(C)(=O)=O)c21 (stereo not drawn) [Compound 296] ; system: CDK12 (aa686-1082)/Cyclin K complex (Homo sapiens, UniProt Q9NYV4) ≥ 5 µM

// fetch IC50; item: O=C1CCN(C(=O)c2ccc3c(-c4nc(NC5CCCNC5)ncc4C(F)(F)F)c[nH]c3c2)C1 (stereo not drawn) [Compound 302] ; system: CDK12 (aa686-1082)/Cyclin K complex (Homo sapiens, UniProt Q9NYV4) 0.2 to 5 µM

// fetch IC50; item: CCc1cnc(NC2CCCNC2)nc1-c1c[nH]c2cc(C#N)ccc12 (stereo not drawn) [Compound 246] ; system: CDK12 (aa686-1082)/Cyclin K complex (Homo sapiens, UniProt Q9NYV4) ≥ 5 µM

// fetch IC50; item: FC1(F)CNC[C@@H](Nc2ncc(C(F)(F)F)c(-c3c[nH]c4ccccc34)n2)C1 [Compound 236] ; system: CDK12 (aa686-1082)/Cyclin K complex (Homo sapiens, UniProt Q9NYV4) 0.2 to 5 µM

// fetch IC50; item: O=C(c1ccc2c(-c3nc(NC4CCCNC4)ncc3C(F)(F)F)c[nH]c2c1)N1CCC(O)(C(F)(F)F)C1 (stereo not drawn) [Compound 300] ; system: CDK12 (aa686-1082)/Cyclin K complex (Homo sapiens, UniProt Q9NYV4) 0.2 to 5 µM

// fetch IC50; item: Clc1cnc(NC2CCCNC2)nc1-c1c[nH]c2ccccc12 (stereo not drawn) [Compound 100] ; system: CDK12 (aa686-1082)/Cyclin K complex (Homo sapiens, UniProt Q9NYV4) 0.2 to 5 µM
